Molecular target: T1, recombinant human bone morphogenetic protein-2 (human, UniProt P12643 283-396)
T1 construct: Bought growth factor (Peprotech), physisorbed on microtiter wells for panning and ELISA; also called rh-BMP-2; BMP-2
T1 sequence (P12643 283-396 limits assumed): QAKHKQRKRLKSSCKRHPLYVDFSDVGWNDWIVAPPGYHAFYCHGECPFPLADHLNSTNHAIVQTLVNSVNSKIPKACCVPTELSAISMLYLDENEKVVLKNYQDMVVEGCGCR
Assay: phage ELISA on coated growth factor, anti-M13-HRP; grade of relative binding strength, 1 highest to 4 lowest
Endpoint name: binding result

{"Binder": "PFDPPVR (Tested as M13 phage clone)", "Endpoint name": "binding result", "Result": "binds"}
{"Binder": "LHYPFMT (Tested as M13 phage clone)", "Endpoint name": "binding result", "Result": "binds"}
{"Binder": "QQTQAQH (Tested as M13 phage clone)", "Endpoint name": "binding result", "Result": "binds"}
{"Binder": "DVSPAYH (Tested as M13 phage clone)", "Endpoint name": "binding result", "Result": "binds"}
{"Binder": "WPALFTH (Tested as M13 phage clone)", "Endpoint name": "binding result", "Result": "binds"}
{"Binder": "KVPPANT (Tested as M13 phage clone)", "Endpoint name": "binding result", "Result": "binds"}
{"Binder": "PIQPDER (Tested as M13 phage clone)", "Endpoint name": "binding result", "Result": "binds"}

Next item in the queue.
binding result in this record for PGPTVQG (Tested as M13 phage clone) : binds

Reference source for all entries: patent US7544661
